Measured IC50 (FLT-3 (Homo sapiens))
measured endpoint: IC50 (nM)

>>> df
                                    compound         tested_target  measured_endpoint  qual  value_measured
 0  Cc1ccc(N2CCN(C(=O)Nc3ccc4c(c3)NC(=O)/C4=C\c3ccc[nH]3)C2=O)cc1 [D92]  FLT-3 (Homo sapiens)               IC50     =             223
 1  O=C1Nc2cc(NC(=O)N3CCN(C4CC4)C3=O)c(F)cc2/C1=C/c1ccc[nH]1 [D82]  FLT-3 (Homo sapiens)               IC50     =            3330
 2  Cc1[nH]c(/C=C2\C(=O)Nc3cc(NC(=O)NC(=O)c4ccccc4F)ccc32)c(C)c1C(=O)O [D53]  FLT-3 (Homo sapiens)               IC50     =             508
 3  CN(C)c1ccc(N2CCN(C(=O)Nc3ccc4c(c3)NC(=O)/C4=C\c3ccc[nH]3)C2=O)cc1 [D93]  FLT-3 (Homo sapiens)               IC50     =            1220
 4  Cc1cc(C)c(/C=C2\C(=O)Nc3cc(NC(=O)c4cccn(-c5ccc(F)cc5)c4=O)ccc32)[nH]1 [D119]  FLT-3 (Homo sapiens)               IC50     =             8.1
 5  COc1ccc(-c2c[nH]cc(C(=O)Nc3ccc4c(c3)NC(=O)/C4=C\c3[nH]c(C)c(C(=O)N4CCN(C)CC4)c3C)c2=O)cc1 [D154]  FLT-3 (Homo sapiens)               IC50     =             1.2
 6  O=C1Nc2cc(NC(=O)c3c[nH]cc(-c4ccc(F)cc4F)c3=O)ccc2/C1=C/c1ccc[nH]1 [D135]  FLT-3 (Homo sapiens)               IC50     =            50.1
 7  O=C(NC(=O)c1ccc(Cl)c(C(F)(F)F)c1)Nc1ccc2c(c1)NC(=O)/C2=C\c1ccc[nH]1 [D28]  FLT-3 (Homo sapiens)               IC50     =             385
 8  Cc1[nH]c(/C=C2\C(=O)Nc3cc(NC(=O)c4c[nH]cc(-c5ccc(F)cc5)c4=O)ccc32)c(C)c1C(=O)N1CCN(C)CC1 [D149]  FLT-3 (Homo sapiens)               IC50     =             1.4
 9  COc1ccc(C(=O)NC(=O)Nc2ccc3c(c2)NC(=O)/C3=C\c2ccccn2)cc1 [D20]  FLT-3 (Homo sapiens)               IC50     >            1000
10  COc1ccc(C(=O)NC(=O)Nc2cc3c(cc2F)/C(=C/c2[nH]c(C)c(C(=O)O)c2C)C(=O)N3)cc1 [D49]  FLT-3 (Homo sapiens)               IC50     =             909
11  COc1ccc(C(=O)NC(=O)Nc2ccc3c(c2)NC(=O)/C3=C\c2[nH]c(C)c(C(=O)O)c2C)cc1 [D41]  FLT-3 (Homo sapiens)               IC50     =             180
12  Cc1[nH]c(/C=C2\C(=O)Nc3cc(NC(=O)c4c[nH]cc(-c5ccc(F)cc5F)c4=O)ccc32)c(C)c1CCC(=O)O [D147]  FLT-3 (Homo sapiens)               IC50     =             2.9
13  O=C(NC(=O)c1ccc(C(F)(F)F)cc1)Nc1ccc2c(c1)NC(=O)/C2=C\c1ccc[nH]1 [D27]  FLT-3 (Homo sapiens)               IC50     >            1000
14  Cc1[nH]c(/C=C2\C(=O)Nc3cc(NC(=O)NC(=O)c4ccc(C(F)(F)F)cc4)ccc32)c(C)c1C(=O)O [D35]  FLT-3 (Homo sapiens)               IC50     =             231
15  Cc1[nH]c(/C=C2\C(=O)Nc3cc(NC(=O)c4c[nH]cc(-c5ccc(F)cc5)c4=O)ccc32)c(C)c1CC(=O)N1CCOCC1 [D153]  FLT-3 (Homo sapiens)               IC50     =             2.7
16  COc1ccc(-c2c[nH]cc(C(=O)Nc3ccc4c(c3)NC(=O)/C4=C\c3ccc[nH]3)c2=O)cc1 [D128]  FLT-3 (Homo sapiens)               IC50     =            24.9
